These entries and their values trace back to patent CN116507641A.

# ASSAY TARGET: T1, 大鼠结合素-4 (rat Nectin-4) (rat, UniProt Q8R007 31-508 (mouse entry))
# T1 construct: Transiently expressed on 293T cells; also called NP_001102546.1
# T1 chain: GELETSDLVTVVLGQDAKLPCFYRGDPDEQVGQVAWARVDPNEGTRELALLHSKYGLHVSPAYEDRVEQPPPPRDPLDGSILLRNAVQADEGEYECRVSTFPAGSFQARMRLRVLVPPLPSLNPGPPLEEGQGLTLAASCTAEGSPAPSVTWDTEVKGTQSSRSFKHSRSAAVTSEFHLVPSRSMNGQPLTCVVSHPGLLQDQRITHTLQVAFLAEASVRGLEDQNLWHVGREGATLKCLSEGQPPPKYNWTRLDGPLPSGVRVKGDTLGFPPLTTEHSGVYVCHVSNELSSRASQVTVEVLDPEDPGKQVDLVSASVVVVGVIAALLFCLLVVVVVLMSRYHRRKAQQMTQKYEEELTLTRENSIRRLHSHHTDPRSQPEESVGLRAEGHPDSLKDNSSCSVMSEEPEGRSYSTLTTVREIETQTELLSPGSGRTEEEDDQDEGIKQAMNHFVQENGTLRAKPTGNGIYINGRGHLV
# EXPERIMENT NOTES: flow cytometry on transiently transfected 293T cells; +++ = EC50 below 5nM
MEASUREMENT KIND: EC50

q: Specify EC50 for N4_mAb 6 (antibody, V domains shown, Murine variable regions) VH: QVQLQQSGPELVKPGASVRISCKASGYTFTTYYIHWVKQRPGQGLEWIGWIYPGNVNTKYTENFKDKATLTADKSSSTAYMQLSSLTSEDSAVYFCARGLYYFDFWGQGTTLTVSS VL: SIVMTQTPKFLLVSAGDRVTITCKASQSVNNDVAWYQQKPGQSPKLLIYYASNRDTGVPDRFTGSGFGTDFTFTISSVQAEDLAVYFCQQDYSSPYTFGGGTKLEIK and stop.
a: < 5 nM
